B1: library; a variant is named by its letters at N, in order (parent)
chain: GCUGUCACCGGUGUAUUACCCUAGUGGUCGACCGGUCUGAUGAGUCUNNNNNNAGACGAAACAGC

- Variants of: B1
- run-description: normalized RNA/DNA level without ligand (relative to sTRSVctl = 100) (log10 (% of sTRSVctl)); ligand: hypoxanthine (xanthine aptamer); higher = less ribozyme self-cleavage, higher mRNA level
- experimental-conditions: HEK293T, reporter: mCherry (pCS4076), ligand present: no
Below, each entry is listed with its recorded normalized RNA/DNA level without ligand (log10).
attribute-measured: normalized RNA/DNA level without ligand (log10)

>>> value_observed("GAAAAG")
1.47
>>> value_observed("GUGACC")
1.74
>>> value_observed("CACUAU")
1.84
>>> value_observed("CAAUAU")
1.81
>>> value_observed("GAACCG")
1.48
>>> value_observed("AGUAUU")
1.86
>>> value_observed("UACCGG")
1.63
>>> value_observed("GCGGGC")
1.58
>>> value_observed("GACGUG")
1.29
>>> value_observed("UGGGUU")
1.9
>>> value_observed("UCGUGC")
1.78
>>> value_observed("UUGAGA")
1.53
>>> value_observed("UUUACG")
1.76
>>> value_observed("AGUUCU")
1.86
>>> value_observed("AAAUAU")
1.76
>>> value_observed("CGUGUG")
1.75
>>> value_observed("UCGAUC")
1.96
>>> value_observed("GUCCCC")
1.83
>>> value_observed("UGAGUG")
1.64
>>> value_observed("CAUGGA")
1.78
>>> value_observed("CAAUUC")
1.87
>>> value_observed("GGCGUG")
1.52
